Molecular target: N2 neuraminidase from A/Leningrad/134/17/57 (Influenza A virus A/Leningrad/134/17/57, UniProt Q67214 1-469)
Sequence (Q67214 whole entry): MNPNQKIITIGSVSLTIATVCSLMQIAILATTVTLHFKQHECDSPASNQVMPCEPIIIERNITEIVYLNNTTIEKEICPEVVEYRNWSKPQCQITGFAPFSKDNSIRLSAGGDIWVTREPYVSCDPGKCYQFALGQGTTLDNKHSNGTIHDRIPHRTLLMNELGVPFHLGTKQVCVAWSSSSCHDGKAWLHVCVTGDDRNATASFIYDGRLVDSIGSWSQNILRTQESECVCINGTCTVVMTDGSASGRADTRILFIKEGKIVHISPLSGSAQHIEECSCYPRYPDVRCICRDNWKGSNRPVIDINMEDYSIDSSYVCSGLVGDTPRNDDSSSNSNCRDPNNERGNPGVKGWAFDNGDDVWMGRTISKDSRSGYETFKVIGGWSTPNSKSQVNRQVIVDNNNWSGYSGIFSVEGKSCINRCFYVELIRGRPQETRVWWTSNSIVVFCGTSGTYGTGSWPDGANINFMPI
Assay: flow cytometry, NA on cells
MEASURED_PARAMETER: binding result

BINDER	MEASURED_PARAMETER	RESULT
v9.7 (antibody, V domains shown) VH: QVHLVQSGAEVKEPGSSVTVSCKASGGSFNNQAISWVRQAPGQGLEWMGGIFPISGTATSAQRFQGRVTITADESTTTVYMDLSSLRSDDTAVYYCARAGSDYFNRDLGWENYYFASWGQGTLVTVSS VL: EIVMTQSPATLSLSSGERATLSCRASRSVSSNLAWYQQKPGQAPRLLIYDASTRATGFSARFAGSGSGTEFTLTISSLQSEDSAIYYCQQYNIWPPWTFGQGTKVEIK	binding result	binds
v4.7 (antibody, V domains shown) VH: QVHLVQSGAEVKEPGSSVTVSCKASGGSFSNQAISWVRQAPGQGLEWMGGIFPISGTPTSAQRFQGRVTFTADESTTTVYMDLSSLRSDDTAVYYCARAGSDYFNRDLGWENYYFASWGQGTLVTVSS VL: EIVMTQSPATLSLSSGERATLSCRASRSVSSNLAWYQQKPGQAPRLLIYDASTRATGFSARFAGSGSGTEFTLTISSLQSEDSAIYYCQQYNIWPPWTFGQGTKVEIK	binding result	binds
